From: paper PMC11077089

# target_desc: T1, KAE1;BUD32;PCC1 (Arabidopsis thaliana;Arabidopsis …, UniProt O49653;Q94K14;Q8GWD7 1-353;1-226;1-96, ||)
# T1 sequence 1: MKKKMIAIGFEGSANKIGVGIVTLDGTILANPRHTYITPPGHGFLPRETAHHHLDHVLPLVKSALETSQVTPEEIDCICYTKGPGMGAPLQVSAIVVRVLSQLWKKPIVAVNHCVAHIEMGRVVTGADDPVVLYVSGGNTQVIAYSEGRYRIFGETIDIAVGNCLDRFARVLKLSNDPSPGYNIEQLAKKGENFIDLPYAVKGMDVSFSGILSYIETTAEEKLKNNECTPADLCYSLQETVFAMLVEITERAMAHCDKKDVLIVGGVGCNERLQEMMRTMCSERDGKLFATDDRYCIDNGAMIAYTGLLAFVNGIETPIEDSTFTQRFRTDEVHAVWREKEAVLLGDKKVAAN
# T1 sequence 2: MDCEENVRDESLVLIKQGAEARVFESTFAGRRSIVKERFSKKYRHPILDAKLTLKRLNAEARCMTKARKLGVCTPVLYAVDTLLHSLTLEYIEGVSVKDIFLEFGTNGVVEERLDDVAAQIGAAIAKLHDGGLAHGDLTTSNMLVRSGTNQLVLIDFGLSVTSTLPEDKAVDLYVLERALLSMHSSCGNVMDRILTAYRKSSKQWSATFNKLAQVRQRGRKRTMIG
# T1 sequence 3: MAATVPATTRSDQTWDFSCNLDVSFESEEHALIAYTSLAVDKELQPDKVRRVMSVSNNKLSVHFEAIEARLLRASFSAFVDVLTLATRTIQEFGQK
# procedure_text: MST; MST: 20 mM PBS pH 7.5, 300 mM NaCl, 0.05% Tween 20, 25 C, 50 nM RNA; EMSA: 20 mM Tris-HCl pH 7.5, 300 mM NaCl, 5 mM b-mercaptoethanol, 20% glycerol, agarose gel in Tris-glycine pH 8.0 (8.5 for FAM-RNA), 4 C
# setup_conditions: protein: recombinant;recombinant;recombinant; tags: none (6His on partner PCC1);none (6His on partner CGI121);6His (C-term); chain copies: 2;2;2; label: 5' 6-FAM; tRNA cloverleaf
readout: Kd (µM)
Please respond with the number in µM and leave the unit unwritten.

Q) I have this binder here, 5'-6FAM-tRNAArgCCU (structured_RNA) RNA: GCGCCUGUAGCUCAGUGGAUAGAGCGUCUGUUUCCUAAGCAGAAGGUCGUAGGUUCGACCCCUACCUGGCGCGCCA , and I need its recorded Kd.
A) 38
